- systemName: GST-Nv-NF-kB (Ser allele) (Nematostella vectensis, UniProt A7UNT2 2-411)
- Sequence: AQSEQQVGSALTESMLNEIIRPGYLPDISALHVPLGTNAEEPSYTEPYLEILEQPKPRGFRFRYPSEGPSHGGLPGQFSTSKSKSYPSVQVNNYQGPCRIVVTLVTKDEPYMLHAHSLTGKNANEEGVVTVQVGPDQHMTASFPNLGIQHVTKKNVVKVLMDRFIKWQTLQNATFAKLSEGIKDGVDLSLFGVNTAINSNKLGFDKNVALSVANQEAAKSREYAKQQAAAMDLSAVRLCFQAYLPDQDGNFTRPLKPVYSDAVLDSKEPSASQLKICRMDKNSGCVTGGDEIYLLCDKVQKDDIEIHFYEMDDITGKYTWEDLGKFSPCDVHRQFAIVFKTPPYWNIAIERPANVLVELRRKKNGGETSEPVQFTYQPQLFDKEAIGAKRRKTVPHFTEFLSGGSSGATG
- test: protein-binding microarray (PBM); PBM: ~300 nM protein, 6 mM HEPES pH 7.8, 80 mM KCl, 0.5 mM EDTA, 0.5 mM EGTA, 6% glycerol, 35 ng/ul poly-dIdC, 1% milk, 1 h, room temperature; high values mean tight binding
- conditionContext: dsDNA, one strand shown
Recorded binding signal values for a group of sequences are listed next.

>  <constructSequence>
CCGATTAACATCAAAAAAATTCCTGATGTTAATCGGGTCTTGATTCGCTTGACGCTGCTG

>  <binding signal (z-score)>
1.22

$$$$
>  <constructSequence>
CCGATTAACATCAGATTTCCCCATGATGTTAATCGGGTCTTGATTCGCTTGACGCTGCTG

>  <binding signal (z-score)>
9.52

$$$$
>  <constructSequence>
CCGATTAACATCACGGTTTTCCCTGATGTTAATCGGGTCTTGATTCGCTTGACGCTGCTG

>  <binding signal (z-score)>
6.45

$$$$
>  <constructSequence>
CCGATTAACATCAGGGGAGGTAATGATGTTAATCGGGTCTTGATTCGCTTGACGCTGCTG

>  <binding signal (z-score)>
4.61

$$$$
>  <constructSequence>
CCGATTAACATCAAAAACTCCCTTGATGTTAATCGGGTCTTGATTCGCTTGACGCTGCTG

>  <binding signal (z-score)>
7

$$$$
>  <constructSequence>
CCGATTAACATCAAAATCCCAGTTGATGTTAATCGGGTCTTGATTCGCTTGACGCTGCTG

>  <binding signal (z-score)>
1.74

$$$$
>  <constructSequence>
CCGATTAACATCAGAAAACCCCATGATGTTAATCGGGTCTTGATTCGCTTGACGCTGCTG

>  <binding signal (z-score)>
4.86

$$$$
>  <constructSequence>
CCGATTAACATCAAAGTCCCCCGTGATGTTAATCGGGTCTTGATTCGCTTGACGCTGCTG

>  <binding signal (z-score)>
6.12

$$$$
>  <constructSequence>
CCGATTAACATCAGGACCCCCCCTGATGTTAATCGGGTCTTGATTCGCTTGACGCTGCTG

>  <binding signal (z-score)>
3.23

$$$$
>  <constructSequence>
CCGATTAACATCAGGGATTTTACTGATGTTAATCGGGTCTTGATTCGCTTGACGCTGCTG

>  <binding signal (z-score)>
2.96

$$$$
>  <constructSequence>
CCGATTAACATCAGGGAGAACCCTGATGTTAATCGGGTCTTGATTCGCTTGACGCTGCTG

>  <binding signal (z-score)>
1.28

$$$$
>  <constructSequence>
CCGATTAACATCAGGGAAGTCCCTGATGTTAATCGGGTCTTGATTCGCTTGACGCTGCTG

>  <binding signal (z-score)>
9.19

$$$$
>  <constructSequence>
CCGATTAACATCAGGGAAAATACTGATGTTAATCGGGTCTTGATTCGCTTGACGCTGCTG

>  <binding signal (z-score)>
6.82

$$$$
>  <constructSequence>
CCGATTAACATCACCTGGTCGGGTGATGTTAATCGGGTCTTGATTCGCTTGACGCTGCTG

>  <binding signal (z-score)>
1.03

$$$$
>  <constructSequence>
CCGATTAACATCACCCACTCCCCTGATGTTAATCGGGTCTTGATTCGCTTGACGCTGCTG

>  <binding signal (z-score)>
3.92

$$$$
>  <constructSequence>
CCGATTAACATCAGGATAACCCCTGATGTTAATCGGGTCTTGATTCGCTTGACGCTGCTG

>  <binding signal (z-score)>
1.82

$$$$
>  <constructSequence>
CCGATTAACATCAGAGATTTCCCTGATGTTAATCGGGTCTTGATTCGCTTGACGCTGCTG

>  <binding signal (z-score)>
6.13

$$$$
>  <constructSequence>
CCGATTAACATCAGGGGATGCACTGATGTTAATCGGGTCTTGATTCGCTTGACGCTGCTG

>  <binding signal (z-score)>
6.02

$$$$
>  <constructSequence>
CCGATTAACATCAAAATATCCCCTGATGTTAATCGGGTCTTGATTCGCTTGACGCTGCTG

>  <binding signal (z-score)>
11

$$$$
>  <constructSequence>
CCGATTAACATCACCAGGTTAGGTGATGTTAATCGGGTCTTGATTCGCTTGACGCTGCTG

>  <binding signal (z-score)>
1.85

$$$$
>  <constructSequence>
CCGATTAACATCACTCTTTCCCCTGATGTTAATCGGGTCTTGATTCGCTTGACGCTGCTG

>  <binding signal (z-score)>
7.19

$$$$
>  <constructSequence>
CCGATTAACATCAAATTCCCCCTTGATGTTAATCGGGTCTTGATTCGCTTGACGCTGCTG

>  <binding signal (z-score)>
11

$$$$
>  <constructSequence>
CCGATTAACATCAAAATTTCCCTTGATGTTAATCGGGTCTTGATTCGCTTGACGCTGCTG

>  <binding signal (z-score)>
7.99

$$$$
>  <constructSequence>
CCGATTAACATCACAGAACCCCCTGATGTTAATCGGGTCTTGATTCGCTTGACGCTGCTG

>  <binding signal (z-score)>
7.39

$$$$
>  <constructSequence>
CCGATTAACATCAAGGGGGTTTATGATGTTAATCGGGTCTTGATTCGCTTGACGCTGCTG

>  <binding signal (z-score)>
7.73

$$$$
>  <constructSequence>
CCGATTAACATCACGGGGATTTATGATGTTAATCGGGTCTTGATTCGCTTGACGCTGCTG

>  <binding signal (z-score)>
8.97

$$$$
>  <constructSequence>
CCGATTAACATCAGGGGGTAACATGATGTTAATCGGGTCTTGATTCGCTTGACGCTGCTG

>  <binding signal (z-score)>
4.43

$$$$
>  <constructSequence>
CCGATTAACATCACGTACTCCCCTGATGTTAATCGGGTCTTGATTCGCTTGACGCTGCTG

>  <binding signal (z-score)>
3.43

$$$$
>  <constructSequence>
CCGATTAACATCAGGGAAATTTATGATGTTAATCGGGTCTTGATTCGCTTGACGCTGCTG

>  <binding signal (z-score)>
7.67

$$$$
>  <constructSequence>
CCGATTAACATCAGCAATTTCCCTGATGTTAATCGGGTCTTGATTCGCTTGACGCTGCTG

>  <binding signal (z-score)>
5.81

$$$$
>  <constructSequence>
CCGATTAACATCAGGGGCCCCCCTGATGTTAATCGGGTCTTGATTCGCTTGACGCTGCTG

>  <binding signal (z-score)>
2.88

$$$$
>  <constructSequence>
CCGATTAACATCAAAGATTTCCCTGATGTTAATCGGGTCTTGATTCGCTTGACGCTGCTG

>  <binding signal (z-score)>
7.19

$$$$
>  <constructSequence>
CCGATTAACATCAAATATTTCCCTGATGTTAATCGGGTCTTGATTCGCTTGACGCTGCTG

>  <binding signal (z-score)>
6.99

$$$$
>  <constructSequence>
CCGATTAACATCATGGGGGGTAATGATGTTAATCGGGTCTTGATTCGCTTGACGCTGCTG

>  <binding signal (z-score)>
2.78

$$$$
>  <constructSequence>
CCGATTAACATCAAATCCCCCCTTGATGTTAATCGGGTCTTGATTCGCTTGACGCTGCTG

>  <binding signal (z-score)>
7.98

$$$$
>  <constructSequence>
CCGATTAACATCAAGGTATTTCCTGATGTTAATCGGGTCTTGATTCGCTTGACGCTGCTG

>  <binding signal (z-score)>
1.29

$$$$

* * *

- systemName: GST-Co-NF-kB (Capsaspora owczarzaki, UniProt F1ARL5 200-546)
- Sequence: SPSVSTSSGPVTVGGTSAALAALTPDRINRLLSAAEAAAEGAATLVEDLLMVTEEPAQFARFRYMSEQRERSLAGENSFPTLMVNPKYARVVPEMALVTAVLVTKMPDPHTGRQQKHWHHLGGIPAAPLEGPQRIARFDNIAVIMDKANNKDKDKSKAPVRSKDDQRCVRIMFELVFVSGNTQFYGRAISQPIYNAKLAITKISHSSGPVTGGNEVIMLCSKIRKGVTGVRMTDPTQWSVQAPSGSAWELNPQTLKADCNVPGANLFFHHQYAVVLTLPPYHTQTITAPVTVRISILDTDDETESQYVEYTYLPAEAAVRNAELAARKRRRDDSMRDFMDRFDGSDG
- test: protein-binding microarray (PBM); PBM: ~300 nM protein, 6 mM HEPES pH 7.8, 80 mM KCl, 0.5 mM EDTA, 0.5 mM EGTA, 6% glycerol, 35 ng/ul poly-dIdC, 1% milk, 1 h, room temperature; Ap Aiptasia and Nv Nematostella (sea anemones) / Co Capsaspora / Aq Amphimedon (sponge) / Dm Drosophila / Hu human; RHD is the Rel homology domain; high values mean tight binding
- conditionContext: dsDNA, one strand shown
binding signal strictly less than 3 z-score = met. Otherwise not met.

>  <constructSequence>
CCGATTAACATCAAGGAATACCCTGATGTTAATCGGGTCTTGATTCGCTTGACGCTGCTG

>  <discreteLabel>
met

$$$$
>  <constructSequence>
CCGATTAACATCAGGGGGTGGGATGATGTTAATCGGGTCTTGATTCGCTTGACGCTGCTG

>  <discreteLabel>
not met

$$$$
>  <constructSequence>
CCGATTAACATCAGGGGAAGGACTGATGTTAATCGGGTCTTGATTCGCTTGACGCTGCTG

>  <discreteLabel>
not met

$$$$
>  <constructSequence>
CCGATTAACATCAGGGACGGAAATGATGTTAATCGGGTCTTGATTCGCTTGACGCTGCTG

>  <discreteLabel>
met

$$$$
>  <constructSequence>
CCGATTAACATCAAACTTCCCCCTGATGTTAATCGGGTCTTGATTCGCTTGACGCTGCTG

>  <discreteLabel>
not met

$$$$

The values you see were collected from paper PMC5700166.
